inhibition at 1 µM reference
Molecular target: human recombinant histamine H1 receptor (Homo sapiens)
Construct: expressed in transfected cells; host or cells: CHO cells
Sequence (P35367 whole entry): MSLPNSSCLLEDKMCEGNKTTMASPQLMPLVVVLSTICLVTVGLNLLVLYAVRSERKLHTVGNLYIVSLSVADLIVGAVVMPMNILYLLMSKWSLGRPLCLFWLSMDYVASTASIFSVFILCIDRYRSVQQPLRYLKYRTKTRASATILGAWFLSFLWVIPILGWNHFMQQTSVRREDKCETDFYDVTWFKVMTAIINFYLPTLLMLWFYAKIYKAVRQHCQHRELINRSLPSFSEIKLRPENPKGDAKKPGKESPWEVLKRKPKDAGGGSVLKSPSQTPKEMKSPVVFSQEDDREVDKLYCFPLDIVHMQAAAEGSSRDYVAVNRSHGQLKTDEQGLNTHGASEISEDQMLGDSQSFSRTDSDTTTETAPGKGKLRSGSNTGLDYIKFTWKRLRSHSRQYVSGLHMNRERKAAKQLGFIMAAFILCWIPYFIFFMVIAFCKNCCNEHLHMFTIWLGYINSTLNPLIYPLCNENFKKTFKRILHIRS
Assay: Histamine H1 radioligand binding ([3H]Pyrilamine)
Settings: compound at 1 μM; inhibition of specific [3H]Pyrilamine binding; read-out: Histamine Binding (1 μM) H1, Percentage Inhibition
Write it as a number; the unit % goes unstated.

Example entries begin here.
INSERT INTO results (compound, reported_result) VALUES
  ('C/C(=C\n1c2c(c3cc(C)ccc31)C1CCC(C2)N1C)c1cccnc1 (stereo not shown)', 5),
  ('CCOC(=O)CCn1c2c(c3cc(Cl)ccc31)C1CCC(C2)N1C (stereo not shown)', 65),
  ('Cc1ccc2c(c1)c1c(n2CC(C)(O)c2ccc(Cl)cc2)CC2CCC1N2C (stereo not shown)', 63),
  ('Cc1ccc2c(c1)c1c(n2CCc2cccnc2)CC2CCC1N2C (stereo not shown)', 99),
  ('C/C(=C\n1c2c(c3cc(Cl)ccc31)C1CCC(C2)N1C)c1ccc(F)cc1 (stereo not shown)', 62);

Identify inhibition at 1 µM associated with the compound Cc1ccc(C(O)Cn2c3c(c4cc(Cl)ccc42)C2CCC(C3)N2C)cn1 (stereo not shown) 91

Please give the documented inhibition at 1 µM of C/C(=C\n1c2c(c3cc(Cl)ccc31)C1CCC(C2)N1C)c1ccc(Cl)c(Cl)c1 (stereo not shown) 87

Give the value of inhibition at 1 µM reported for the following: COc1ccc(C(C)(O)Cn2c3c(c4cc(C)ccc42)C2CCC(C3)N2C)cc1F (stereo not shown) 84

Dear colleague, please send me the reported inhibition at 1 µM for Cc1ccc2c(c1)c1c(n2CCc2ccc(C)nc2)CC2CCC1N2C (stereo not shown) when you can. 94

Answer with the recorded inhibition at 1 µM for the compound listed here: Cc1ccc(CCCn2c3c(c4cc(Cl)ccc42)C2CCC(C3)N2C)cn1 (stereo not shown) 96

* * *

Target: human recombinant adrenergic α2B receptor (Homo sapiens, UniProt P18089)
Construct: expressed in transfected cells; host or cells: CHO-K1 cells
Sequence (P18089 whole entry): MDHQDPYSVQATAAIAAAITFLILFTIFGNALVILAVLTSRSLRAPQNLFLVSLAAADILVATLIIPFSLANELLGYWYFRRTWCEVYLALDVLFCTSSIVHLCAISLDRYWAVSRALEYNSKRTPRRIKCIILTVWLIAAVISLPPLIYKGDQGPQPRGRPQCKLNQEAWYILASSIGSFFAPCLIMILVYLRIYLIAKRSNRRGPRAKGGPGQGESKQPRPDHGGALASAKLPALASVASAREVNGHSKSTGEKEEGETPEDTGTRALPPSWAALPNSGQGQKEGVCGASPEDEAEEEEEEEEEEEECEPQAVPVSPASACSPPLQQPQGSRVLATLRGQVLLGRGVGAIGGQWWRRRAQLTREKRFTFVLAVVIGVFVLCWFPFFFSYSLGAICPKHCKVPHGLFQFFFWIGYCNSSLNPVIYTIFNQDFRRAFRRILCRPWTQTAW
Experiment: Adrenergic α2B radioligand binding ([3H]Rauwolscine)
Details: 1 μM; read-out: Adrenergic α2B, inhibition of ligand binding (1 μM)
Measured Attribute: inhibition at 1 µM (%)
Lab book: enter the figure in %, no units written.

For orientation, consider the following solved cases.
INSERT INTO measurements (compound, system_tested, measured_attribute, reported_result) VALUES
  ('Cc1ccc2c(c1)c1c(n2C#Cc2ccc(F)cc2)CC2CCC1N2C (stereo not drawn)', 'human recombinant adrenergic α2B receptor (Homo sapiens, UniProt P18089)', 'inhibition at 1 µM', 95),
  ('CN1C2CCC1c1c(n(CCc3ccc(Cl)cc3)c3ccc(F)cc13)C2 (stereo not drawn)', 'human recombinant adrenergic α2B receptor (Homo sapiens, UniProt P18089)', 'inhibition at 1 µM', 100),
  ('CN1C2CCC1c1c(n(CC(=O)c3ccccc3)c3ccc(Cl)cc13)C2 (stereo not drawn)', 'human recombinant adrenergic α2B receptor (Homo sapiens, UniProt P18089)', 'inhibition at 1 µM', 92),
  ('CN1C2CCC1c1c(n(CC(=O)N3CCCC3)c3ccc(Cl)cc13)C2 (stereo not drawn)', 'human recombinant adrenergic α2B receptor (Homo sapiens, UniProt P18089)', 'inhibition at 1 µM', 5),
  ('C/C(=C\n1c2c(c3cc(C)ccc31)C1CCC(C2)N1C)c1ccc(F)cc1 (stereo not drawn)', 'human recombinant adrenergic α2B receptor (Homo sapiens, UniProt P18089)', 'inhibition at 1 µM', 101),
  ('Cc1ccc2c(c1)c1c(n2CC(C)(O)c2ccc(Cl)cc2)CC2CCC1N2C (stereo not drawn)', 'human recombinant adrenergic α2B receptor (Homo sapiens, UniProt P18089)', 'inhibition at 1 µM', 94),
  ('C/C(=C/n1c2c(c3ccccc31)[C@@H]1CC[C@H](C2)N1C)c1ccc(F)cc1', 'human recombinant adrenergic α2B receptor (Homo sapiens, UniProt P18089)', 'inhibition at 1 µM', 100),
  ('CN1C2CCC1c1c(n(CCC(=O)N3CCS(=O)(=O)CC3)c3ccc(Cl)cc13)C2 (stereo not drawn)', 'human recombinant adrenergic α2B receptor (Homo sapiens, UniProt P18089)', 'inhibition at 1 µM', 1);

Fill in inhibition at 1 µM for record Cc1ccc2c(c1)c1c(n2CCCc2ccc(Cl)cc2)CC2CCC1N2C (stereo not drawn) 92

Give reported inhibition at 1 µM value for CN1C2CCC1c1c(n(CCc3ccc(Cl)cc3)c3ccc(Cl)cc13)C2 (stereo not drawn) 99

Specify measured inhibition at 1 µM for CN1C2CCC1c1c(n(CCC(=O)N3CC[S+]([O-])CC3)c3ccc(Cl)cc13)C2 (stereo not drawn) . 7

Item Cc1ccc2c(c1)c1c(n2CCC#N)CC2CCC1N2C (stereo not drawn) : provide inhibition at 1 µM 94

* * *

Target: human recombinant serotonin (5-Hydroxytryptamine) 5-HT6 receptor (Homo sapiens, UniProt P50406)
Construct: expressed in transfected cells; host or cells: human HeLa cells
Sequence (P50406 whole entry): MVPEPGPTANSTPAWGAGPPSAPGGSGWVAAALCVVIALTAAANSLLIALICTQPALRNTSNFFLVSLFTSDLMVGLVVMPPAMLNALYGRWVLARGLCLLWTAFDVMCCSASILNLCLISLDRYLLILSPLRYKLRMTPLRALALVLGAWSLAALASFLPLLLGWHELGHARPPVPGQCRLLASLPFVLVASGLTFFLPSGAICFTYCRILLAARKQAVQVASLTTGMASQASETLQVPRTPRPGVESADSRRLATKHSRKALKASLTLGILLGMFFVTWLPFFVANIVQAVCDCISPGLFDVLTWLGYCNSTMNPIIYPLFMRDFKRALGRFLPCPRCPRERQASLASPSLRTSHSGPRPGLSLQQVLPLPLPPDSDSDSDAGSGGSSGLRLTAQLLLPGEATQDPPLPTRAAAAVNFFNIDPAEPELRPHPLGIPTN
Experiment: Serotonin 5-HT6 radioligand binding ([3H]LSD)
Conditions: read-out: Serotonin 5-HT6, inhibition of ligand binding (1 μM)
Measured Attribute: inhibition at 1 µM
Answer format: number, then unit.

The cases that follow already have their inhibition at 1 µM on record.
INSERT INTO results (molecule, measured_attribute, reported_result) VALUES
  ('C/C(=C\n1c2c(c3cc(C)ccc31)C1CCC(C2)N1C)c1ccc(Cl)cc1Cl (stereo not shown) [Compound 163]', 'inhibition at 1 µM', '36%'),
  ('Cc1cncc(CCn2c3c(c4cc(C)ccc42)C2CCC(C3)N2C)c1 (stereo not shown) [Compound 90]', 'inhibition at 1 µM', '6%'),
  ('CN1[C@@H]2CC[C@H]1c1c(n(CC(C)(O)c3ccc(F)cc3)c3ccccc13)C2 (stereo partly shown) [Compound 99]', 'inhibition at 1 µM', '-2%'),
  ('CN1C2CCC1c1c(n(CC(=O)N3CCCC3)c3ccc(Cl)cc13)C2 (stereo not shown) [Compound 60]', 'inhibition at 1 µM', '9%');

State, in one line, measured inhibition at 1 µM of Cc1cncc(CCn2c3c(c4cc(Cl)ccc42)C2CCC(C3)N2C)c1 (stereo not shown) [Compound 89] 10%

Give inhibition at 1 µM for the following molecule: Cc1ccc2c(c1)c1c(n2CCc2ccccc2)CC2CCCC1N2C (stereo not shown) [Compound 56] 30%

Give inhibition at 1 µM for the following molecule: Cc1ccc(C(O)Cn2c3c(c4cc(Cl)ccc42)C2CCC(C3)N2C)cn1 (stereo not shown) [Compound 52] 16%

Output inhibition at 1 µM of Cc1ccc2c(c1)c1c(n2CC(C)(O)c2ccc(Cl)cc2)CC2CCC1N2C (stereo not shown) [Compound 54] 26%

Please indicate inhibition at 1 µM recorded for COc1ccc(CCn2c3c(c4cc(C)ccc42)C2CCC(C3)N2C)cc1 (stereo not shown) [Compound 83] 23%

Report inhibition at 1 µM for CN1C2CCC1c1c(n(CCc3ccc(C(F)(F)F)nc3)c3ccc(Cl)cc13)C2 (stereo not shown) [Compound 34] 20%

Look up inhibition at 1 µM of CN1C2CCC1c1c(n(CCC(=O)N3CCNC(=O)C3)c3ccc(Cl)cc13)C2 (stereo not shown) [Compound 3] and report it. 3%

Supply recorded inhibition at 1 µM for CN1C2CCC1c1c(n(CCC(=O)N3CC[S+]([O-])CC3)c3ccc(Cl)cc13)C2 (stereo not shown) [Compound 10] here. -13%

Output inhibition at 1 µM of COc1ccc(CCn2c3c(c4cc(Cl)ccc42)C2CCC(C3)N2C)cc1 (stereo not shown) [Compound 84] 13%

* * *

Biological target: human recombinant serotonin (5-Hydroxytryptamine) 5-HT6 receptor (Homo sapiens)
Construct: expressed in transfected cells; host or cells: human HeLa cells
Assay: Serotonin 5-HT6 radioligand binding ([3H]LSD)
Details: read-out: Serotonin 5-HT6, inhibition of ligand binding (1 μM)
inhibition at 1 µM listing for selected compounds.
The reply should contain only the number, in %.

Solved cases below.
INSERT INTO measurements (compound, reported_result) VALUES
  ('Cc1ccc(CCn2c3c(c4cc(Cl)ccc42)C2CCC(C3)N2C)cc1 (stereo not drawn)', 41),
  ('Cc1ccc2c(c1)c1c(n2CC(=O)N2CCCCC2)CC2CCC1N2C (stereo not drawn)', -4);

For the next question, use this compound.
Recall and state the measured inhibition at 1 µM for CN1C2CCC1c1c(n(CCC(=O)N3CCOCC3)c3ccc(Cl)cc13)C2 (stereo not drawn) . 10

* * *

inhibition at 1 µM values, listed per item
Target: human recombinant serotonin (5-Hydroxytryptamine) 5-HT7 receptor (Homo sapiens)
Construct: expressed in transfected cells; host or cells: CHO cells
Sequence (P34969 whole entry): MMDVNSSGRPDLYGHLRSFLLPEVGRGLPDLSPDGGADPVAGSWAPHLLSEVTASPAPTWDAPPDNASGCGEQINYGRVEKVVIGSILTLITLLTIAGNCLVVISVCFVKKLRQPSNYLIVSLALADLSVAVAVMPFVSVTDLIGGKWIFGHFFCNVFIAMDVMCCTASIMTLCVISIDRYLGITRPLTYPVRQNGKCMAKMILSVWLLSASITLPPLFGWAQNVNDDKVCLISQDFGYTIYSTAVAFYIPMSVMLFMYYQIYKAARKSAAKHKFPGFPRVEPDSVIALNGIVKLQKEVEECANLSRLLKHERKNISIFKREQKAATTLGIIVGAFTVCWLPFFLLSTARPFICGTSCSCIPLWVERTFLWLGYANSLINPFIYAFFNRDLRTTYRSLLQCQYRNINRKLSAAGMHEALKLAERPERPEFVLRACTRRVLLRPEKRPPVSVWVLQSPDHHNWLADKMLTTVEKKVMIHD
Test: Serotonin 5-HT7 radioligand binding ([3H]LSD)
Details: read-out: Serotonin 5-HT7, inhibition of ligand binding (1 μM)

Example entries and their recorded answers appear below.
INSERT INTO measurements (compound, reported_result) VALUES
  ('Cc1ccc(C#Cn2c3c(c4cc(Cl)ccc42)C2CCC(C3)N2C)cn1 (stereo not drawn)', '97%'),
  ('C/C(=C\n1c2c(c3cc(C)ccc31)C1CCC(C2)N1C)c1cccnc1 (stereo not drawn)', '80%');

State, for human recombinant serotonin (5-Hydroxytryptamine) 5-HT7 receptor (Homo sapiens), measured inhibition at 1 µM of the compound listed here: COc1ccc(C#Cn2c3c(c4cc(Cl)ccc42)C2CCC(C3)N2C)cc1F (stereo not drawn) 21%
